// values below are reported 5-HT1A Receptor G-Protein Stimulation Emax (%) ± SEM
- Tested On: 5-HT1A receptor (Rattus norvegicus, UniProt P19327)
- Construct: 15 μg/mL of hippocampus homogenate was incubated in triplicate with 0.8 nM; from tissue; host or cells: rat hippocampus homogenate
- Sequence (P19327 whole entry): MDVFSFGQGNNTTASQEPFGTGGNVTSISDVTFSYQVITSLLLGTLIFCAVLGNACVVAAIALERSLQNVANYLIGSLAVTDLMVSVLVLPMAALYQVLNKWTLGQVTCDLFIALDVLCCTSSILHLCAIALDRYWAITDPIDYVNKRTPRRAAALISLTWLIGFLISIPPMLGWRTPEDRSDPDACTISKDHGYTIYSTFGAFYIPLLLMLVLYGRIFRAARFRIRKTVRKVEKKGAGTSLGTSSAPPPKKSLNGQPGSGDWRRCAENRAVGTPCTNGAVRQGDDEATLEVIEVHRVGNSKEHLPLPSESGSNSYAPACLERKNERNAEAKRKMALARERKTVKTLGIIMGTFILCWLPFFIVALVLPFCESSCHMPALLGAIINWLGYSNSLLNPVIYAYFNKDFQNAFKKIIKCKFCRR
- Measurement Notes: Functional 5-HT1A receptor [35S]GTPγS assay (agonist mode);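 further: male Sprague-Dawley rat hippocampal membranes incubated 90 min at 37 °C, bound label counted by scintillation after filtration, non-specific binding defined with 100 µM unlabeled GTPγS, one-site curve fit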
- Format: biochemical
- Cond: [35S]GTPγS, rat hippocampus homogenate
Just the number in %, nothing appended.

Compound: O=C(NCCCN1CCN(c2ncccn2)CC1)C1CC2C=CC1C2 (centres unmarked) [Norbo-24]
Readout Units: %
Recorded Result: 177

Prompt: // 5-HT1A Receptor G-Protein Stimulation Emax (%) ± SEM lookup, key: O=C(NCCCN1CCN(Cc2ccc3c(c2)OCO3)CC1)C1CC2C=CC1C2 (centres unmarked) [Norbo-26]
Completion: 178
